assay: NCI Yeast Anticancer Drug Screen. Data for the CLN2oe strain (AID 163);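 note: 0% = growth of vehicle-only control cultures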; conditions: S. cerevisiae CLN2oe strain, at 3.7 µM
About 79,000 compounds went through this panel and 15% of them were active in at least one assay; those are over-represented in the sample as a whole. Active and inactive are the calls of the source. Cut-off read from the data, not from the text of the source: active = growth inhibition above about 70%; inactive = the rest.
Possible outcomes: active, inactive

>>> df
                                   compound     label
0  Cc1ccc([N+]2=NC(c3ccccc3)=NN(c3ccccc3)C2)cc1  inactive
1    CCN(CC)CCOc1cc(C)c2cc(Cc3ccccc3)ccc2n1  inactive
2      O=C(CSC(=S)N1CCCCC1)Nc1nc2c(s1)CCCC2  inactive
3  COC1=C(N)C(=O)c2nc(-c3nc(C(=O)O)c(C)c(-c4ccc(OC)c(OC)c4O)c3N)ccc2C1=O    active
4  CCOC(=O)C(C(=O)OCC)=P(c1ccccc1)(c1ccccc1)c1ccccc1  inactive
5  O=C(O)C1CC(c2ccccc2)=NN1c1ccccc1 (stereo not given)  inactive
6  CCN(CC)Cc1cc(Nc2c3ccccc3nc3c2[nH]c2ccccc23)cc(CN(CC)CC)c1O  inactive
7  COc1nc2c(c(=O)n1C)N=C(c1ccccc1)[C@H](C(CC(=O)c1ccccc1)c1ccccc1)C(c1ccccc1)N2 (stereo not given in full)  inactive
8  CCCCCCC(O)CNCc1ccnc2ccc(OC)cc12 (stereo not given)  inactive
9      CCC(C)(C)c1ccc(Oc2cccc(C(=O)O)c2)cc1  inactive

----------
assay: NCI Yeast Anticancer Drug Screen. Data for the bub3 strain (AID 167); conditions: S. cerevisiae bub3 mutant strain, at 11.0 µM, hits give high values
This is part of a sample that, as a whole, favours compounds with a hit. Of some 79,000 tested, about 15% had one in any assay.
# if value of growth inhibition reaches 10%, tag MET; if it stays below, tag NOT MET

                                   compound    label
0  CCOC(=O)c1[nH]cc(C)c1-c1cccn1-c1ccc(Cl)cc1[N+](=O)[O-]      MET
1  CCCCNC1CCC2(SCCS2)c2[nH]c3ccccc3c21 (stereo not given)  NOT MET
2  Cc1cc(-c2cc(C)c(O)c(C(C)(C)C)c2)cc(C(C)(C)C)c1O      MET
3  COc1ccc2[nH]cc([C@@H]3C4CCC(C4)[C@H]3NCc3cccc(CN[C@H]4C5CCC(C5)[C@@H]4c4c[nH]c5ccc(OC)cc45)c3)c2c1  NOT MET
4    CC(C)OC(=O)Nc1ccc2nc(-c3cscn3)[nH]c2c1  NOT MET
5  CC(NCCN(C)C)C1CCC2C3CCc4cc(O)ccc4C3CCC12C (stereo not given)      MET
6                CN(C)c1ccc(N=Nc2ccncc2)cc1      MET
7    OCC(CO)C(c1cccc2ccccc12)c1cccc2ccccc12      MET
8             Cc1cccc2c1nc1ccc(Cl)cc1[n+]2C      MET
9  Oc1ccc(-c2nc(-c3ccc(F)cc3)c(-c3ccc4ccccc4n3)[nH]2)cc1      MET

----------
test: NCI Yeast Anticancer Drug Screen. Data for the rad18 strain (AID 177); details: S. cerevisiae rad18 mutant growth inhibition; at 100.0 µM; hits give high values
The panel holds about 79,000 compounds, 15% with a hit somewhere; the sample as a whole holds those more often. The source made the active and inactive calls. Rule as the data show it: active = growth inhibition above about 70%; inactive = the rest.
readout-name: growth inhibition

molecule	reported-result
O=c1ssc(=Nc2ccccc2)n1-c1ccccc1	47% (inactive)
CCN(CC)CCOc1cc(C)c2cc(Cc3ccccc3)ccc2n1	99% (active)
N#CNC(N)=Nc1cc2ccccc2c2ccccc12	92% (active)
CC1=C(C(=O)NCc2ccccc2)C(c2ccccc2)C(C(=O)NCc2ccccc2)=C(C)N1	96% (active)
Cc1cc(NCCCCCCCCNc2cc(C)nc3cc(N)ccc23)c2ccc(N)cc2n1	93% (active)
CN(C)c1ccc(C2CC(C)(O)Oc3cc4c(cc32)OCO4)cc1 (stereo not given)	95% (active)
COC(=O)CC1(O)C(/C=C/c2ccccc2)C(C(=O)OC)C(=O)C(C(=O)OC)C1C(=O)OC (stereo not given)	4% (inactive)
NC1CCCCC1N.Nc1c(N=Nc2ccc(-c3ccc(N=Nc4cc(S(=O)(=O)[O-])c5ccccc5c4N)cc3)cc2)cc(S(=O)(=O)[O-])c2ccccc12.[OH3+].[OH3+].[Pt+4]	71% (active)
CC(C)CN(CC(C)C)C(=O)c1ccc(Cl)c(Cl)c1	99% (active)
O=C1C=C(Cl)C(=O)C(c2ccc(Cl)cc2)=C1	97% (active)
Cc1ccc(Cl)cc1NC(=O)OCCN(C)C(=O)Nc1cc(Cl)ccc1C	15% (inactive)
CS(=O)(=O)OCCN(CCOS(C)(=O)=O)c1ccc(C=Nc2ccc(-c3csc(COc4ccccc4)n3)cc2)cc1	91% (active)
N#CC(C#N)=NNc1ccc(S(=O)(=O)O)cc1	2% (inactive)
CC(C)C(C)/C=C\C(C)C1CCC2C3=CC=C4CC(O)CCC4(C)C3CCC21C (stereo not given)	-7% (inactive)
C#CCN(Cc1ccc2nc(N)[nH]c(=O)c2c1)c1ccc(C(=O)NC(CCC(=O)O)C(=O)O)cc1 (stereo not given)	65% (inactive)
Cc1cc(C)c(NC(=S)NC(=O)c2ccccc2)cc1C	-46% (inactive)
O=C1CSC(c2cccc(Cl)c2)N1c1ccc(-c2ccc(-n3c(-c4ccccc4)nc4ccccc4c3=O)cc2)cc1 (stereo not given)	31% (inactive)
CCC(=O)c1cc(C(=O)C(=S)SC)cc(C(=O)C(=S)SC)c1	94% (active)
Cc1ccc(NCCNCCO)c2c(=O)c3cc(O)ccc3sc12	93% (active)
CCOC(=O)C(C(=O)OCC)=P(c1ccccc1)(c1ccccc1)c1ccccc1	95% (active)
COc1cc(/C=N/Nc2nnc3c4ccccc4c4ncccc4c3n2)cc(OC)c1OC	30% (inactive)
COC1=C(N)C(=O)c2nc(-c3nc(C(=O)O)c(C)c(-c4ccc(OC)c(OC)c4O)c3N)ccc2C1=O	97% (active)
COc1ccc2[nH]cc([C@@H]3C4CCC(C4)[C@H]3NCc3cccc(CN[C@H]4C5CCC(C5)[C@@H]4c4c[nH]c5ccc(OC)cc45)c3)c2c1	98% (active)
C=C1CC(CCCl)(c2ccccc2)OC1=O (stereo not given)	99% (active)
O=[N+]([O-])c1ccc(N/N=C/Cc2ccccc2)c([N+](=O)[O-])c1	21% (inactive)
Nc1ncc(-c2ccc(Br)cc2)s1	97% (active)
COc1ccc(C(=O)Oc2ccccc2Br)cc1	53% (inactive)
CCOC(=N)c1ccc(O)c(OC)c1	14% (inactive)
O=C1C=C(Cl)C(=O)N1c1cccc(Cl)c1	99% (active)
C=C(Cl)COC(=O)Nc1cccc(Cl)c1	94% (active)
Cc1cc(N(CCOS(C)(=O)=O)CCOS(C)(=O)=O)ccc1C=Nc1ccc(-c2nc(Cc3ccccc3)sc2C)cc1	98% (active)
CN(C)CCNC(=O)c1cccc2c1Oc1c(cccc1[N+](=O)[O-])O2	69% (inactive)
CC1OC(O[C@H]2/C=C/C=C/C=C/C=C/C=C/C=C/C=C/[C@H](C)[C@@H](O)[C@@H](C)[C@H](C)OC(=O)C[C@H](O)C[C@H](O)CC[C@@H](O)[C@H](O)C[C@H](O)C[C@]3(O)C[C@H](O)[C@@H](C(=O)O)[C@H](C2)O3)C(O)C(N)C1O (stereo not given in full)	97% (active)
Cc1nc2c(Br)cc(Br)cc2c(=O)n1-c1ccccc1NC1OCC(O)C(O)C1O (stereo not given)	97% (active)
COc1cc2ccnc(-c3c4ccccc4c(N)c4c(OC)c(OC)ccc34)c2cc1OC	74% (active)
OC1(c2ccccc2)CCCc2ccc(Cl)cc21 (stereo not given)	99% (active)
COc1oc(C(=O)NC2CCCCC2)c(-c2ccc(Cl)cc2)c1S(=O)(=O)c1ccccc1	80% (active)
Cc1c(C)c(C)c(CSC(=N)N)c(C)c1C	98% (active)
COC(=O)CC1CCc2c(ccc3ccccc23)C1(C)C(=O)OC (stereo not given)	20% (inactive)
COc1cccc(/C=N/C(/N=C/c2cccc(OC)c2O)c2cccc(OC)c2O)c1O	98% (active)

----------
test: NCI Yeast Anticancer Drug Screen. Data for the rad50EPP+ strain (AID 151);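 note: 0% = growth of vehicle-treated control cultures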; conditions: S. cerevisiae rad50 mutant strain, at 33.0 µM, hits give high values
About 79,000 compounds went through this panel and 15% of them were active in at least one assay; those are over-represented in the sample as a whole.
readout-name: growth inhibition (%)

compound	readout-name	reported-result
C=C(Cl)COC(=O)Nc1cccc(Cl)c1	growth inhibition	75
CNCCCNc1c2ccccc2nc2cccc([N+](=O)[O-])c12	growth inhibition	97
COC(=O)CC1CCc2c(ccc3ccccc23)C1(C)C(=O)OC (centres undefined)	growth inhibition	48
CC1=CC(=C(c2ccc(N)cc2)c2ccc(N)cc2)C=CC1=N	growth inhibition	29
CC(/C=C/c1ccccc1)=N\NC(N)=S	growth inhibition	-3
CCCCNC1CCC2(SCCS2)c2[nH]c3ccccc3c21 (centres undefined)	growth inhibition	-4
Oc1ccc(-c2nc(-c3ccc(F)cc3)c(-c3ccc4ccccc4n3)[nH]2)cc1	growth inhibition	-16
O=C1OC(C2=CC(=O)c3ccccc3C2=O)C(Cl)=C1Cl (centres undefined)	growth inhibition	81
CC1OC(O[C@H]2/C=C/C=C/C=C/C=C/C=C/C=C/C=C/[C@H](C)[C@@H](O)[C@@H](C)[C@H](C)OC(=O)C[C@H](O)C[C@H](O)CC[C@@H](O)[C@H](O)C[C@H](O)C[C@]3(O)C[C@H](O)[C@@H](C(=O)O)[C@H](C2)O3)C(O)C(N)C1O (some centres undefined)	growth inhibition	99
